Item-by-item account of pEC50
Molecular target: acetylcholine muscarinic M1 receptor (CHOnfat/hM1 cells) (Homo sapiens)
Construct: expressed in transfected cells; host or cells: CHOnfat (CHO cells; selected with Geneticin)
Sequence (P11229 1-460): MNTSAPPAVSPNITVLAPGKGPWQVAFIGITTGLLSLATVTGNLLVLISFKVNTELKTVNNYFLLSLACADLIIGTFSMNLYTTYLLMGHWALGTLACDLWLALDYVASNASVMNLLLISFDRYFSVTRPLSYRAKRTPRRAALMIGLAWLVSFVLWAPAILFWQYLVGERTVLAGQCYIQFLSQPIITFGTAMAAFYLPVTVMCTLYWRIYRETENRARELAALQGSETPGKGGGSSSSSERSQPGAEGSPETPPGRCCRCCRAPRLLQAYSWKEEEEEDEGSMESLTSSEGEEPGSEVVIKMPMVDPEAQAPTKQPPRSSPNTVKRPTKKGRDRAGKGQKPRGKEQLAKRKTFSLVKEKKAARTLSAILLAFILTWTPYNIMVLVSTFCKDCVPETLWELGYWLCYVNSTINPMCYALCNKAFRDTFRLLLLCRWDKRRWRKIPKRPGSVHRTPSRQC
Assay: FLIPR intracellular calcium assay for M1 positive allosteric modulator activity (acetylcholine EC20)
Format: cell-based
Conditions: CHOnfat/hM1 cells, 4 min preincubation, then EC20 acetylcholine (3 nM final), FLIPR Ca2+; read-out: IP Value (inflection point)
Description: The assay studies the effect of one or several concentrations of test compounds on basal or acetylcholine-stimulated Ca^2+ levels using FLIPR. Compounds are prepared and subjected to a preincubation period of 4 min. Thereafter, a single EC20 concentration of acetylcholine is added to each well (3 nM final). The intracellular Ca^2+ level of each sample is measured and compared to an acetylcholine control to determine any modulatory activity. […]
Remember the convention: pEC50 equals -log10 of concentration in molar.

Worked cases, pEC50 given:
Compound: C[S@@+]([O-])[C@H]1CCCC[C@@H]1NC(=O)c1cc(CN2CCC(C#N)(c3ccccn3)CC2)c2ccccn2c1=O (racemic)
pEC50: 5.59
//
Compound: N#CC1(c2ccccn2)CCN(Cc2cc(C(=O)N[C@@H]3CCCCC3=O)c(=O)n3ccccc23)CC1
pEC50: 6.18
//
Compound: Cn1cc(N2CCN(Cc3cc(C(=O)N[C@H]4CCCC[C@@H]4O)c(=O)n4ccccc34)CC2=O)cn1
pEC50: 6.77

Please look at the following compound next.
stdin: I am curious: what pEC50 value has been reported for COC(=O)N1CCC(NC(=O)c2cc(CN3CCC(C#N)(c4ccccn4)CC3)c3ccccn3c2=O)CC1 ?
stdout: 6.22

====

target: acetylcholine muscarinic M1 receptor (CHOnfat/hM1 cells) (Homo sapiens); construct: expressed in transfected cells; host or cells: CHOnfat (CHO cells; selected with Geneticin); experiment: FLIPR intracellular calcium assay for M1 positive allosteric modulator activity (acetylcholine EC20); type: cell-based
Reported Property: EC50 (nM)
Unit nM implied. Number only.

Compound: N#CC1(c2ccccc2)CCN(Cc2cc(C(=O)N[C@@H]3CCOC[C@H]3O)c(=O)n3ccccc23)CC1
Units Symbol: nM
EC50: 530
--
Compound: N#CC1(c2cc(CF)ccn2)CCN(Cc2cc(C(=O)N[C@H]3CCCC[C@@H]3O)c(=O)n3ccccc23)CC1
Units Symbol: nM
EC50: 34
--
Compound: C[C@]1(O)CCCC[C@@H]1NC(=O)c1cc(CN2CCC(C#N)(c3ccccn3)CC2)c2ccccn2c1=O (racemic)
Units Symbol: nM
EC50: 93

Please look at the following compound next.
stdin: I am curious: what EC50 value has been reported for N#CC1(c2ccccc2)CCN(Cc2cc(C(=O)N[C@H]3COCC[C@@H]3O)c(=O)n3ccccc23)CC1 ?
stdout: 560
